assay: Cellular viability qHTS for adrenocortical cancer (ACC) cell line NCI-H295R (AID 1963990); conditions: CellTiter-Glo ATP luminescence, 48 h; series mostly up to 46.1 µM; also: nearly all actives have a fitted effect of over 60% in size
Inconclusive results are not listed. Activity calls are given as the source filed them. Calls follow the shape of the dose curve; as a rule, active = well fitted cell-killing curve with a large enough effect; inconclusive = small, poorly fitted or top-dose-only effect; inactive = flat fitted curve, though single readings scatter.
Allowed answers: active, inactive

# count of solved cases: 3
Molecule	Qualitative Label
CC(C)=CCC/C(C)=C/CC/C(C)=C/C(=O)OCC(=O)[C@@]1(O)CC[C@H]2[C@@H]3CCC4=CC(=O)C=C[C@]4(C)[C@H]3[C@@H](O)C[C@@]21C	inactive
Cn1c(=O)n(-c2ccc(C(C)(C)C#N)cc2)c2c3cc(-c4cnc5ccccc5c4)ccc3ncc21	active
COc1ncc(-c2ccc3nccc(-c4ccnnc4)c3c2)cc1NS(=O)(=O)c1ccc(F)cc1F	active

Lookup: Please let me know the test result on file for COc1ccc(/C=C/C(=O)Nc2ccccc2C(=O)O)cc1OC .
Found: inactive

Lookup: Recorded test outcome, item NC1CCN(c2cccc(Cl)n2)CC1
Found: inactive

Lookup: # fetch the recorded call for CC(C)n1cnc2c(NCCCCCCNC(=O)OC(C)(C)C)nc(NCCO)nc21 here
Found: inactive

Lookup: Call for entry O=c1c(-c2ccc(O)cc2)coc2c([C@@H]3O[C@H](CO)[C@@H](O)[C@H](O)[C@H]3O)c(O)ccc12 :
Found: inactive

====

assay: Viability qHTS for spleen associated tyrosine kinase inhibitor (SYKi) naive MV4-11 cells (AID 1963823); settings: MV4-11 AML viability, CellTiter-Glo luminescence, 72 h; series mostly up to 45 µM; also: nearly all actives have a fitted effect of over 40% in size
Results filed as inconclusive are left out. The source made the active and inactive calls. Calls come from the whole dose curve; as a rule, active = well fitted cell-killing curve with a large enough effect; inconclusive = small, poorly fitted or top-dose-only effect, or effect the other way; inactive = no such curve, though single readings can be large or run the other way.
Your answer must be one of the following: label 1 for active, label 0 for inactive

For orientation, consider the following solved cases.
Compound	Qualitative Label
C=C(C)C(O)COc1ccc(CC(=O)O)cc1 (stereo unspecified)	label 0
CCCS(=O)(=O)Nc1ccc(F)c(C(=O)c2c[nH]c3ncc(Cl)cc23)c1F	label 1
COC1=CC(=O)C[C@@H](C)[C@@]12Oc1c(Cl)c(OC)cc(OC)c1C2=O	label 0
CCC(=O)c1cc(-c2ccc(Cl)cc2)n(-c2ccc(S(N)(=O)=O)cc2)c1C	label 1
Cc1cc(O)cc(Oc2cc(C)c(C(=O)O)c(O)c2)c1	label 0

For the next question, use this compound.
Lookup: Call for entry COc1ccnc(CCc2nc3ncccc3[nH]2)c1 :
Found: label 0

====

experiment: Quantitative highthroughput screen to assess conditional lethalithy of SEM cells grown in Human Plasma-Like Medium with dialyzed fetal bovine serum (HPLM+ds) (AID 1963882); conditions: SEM B-ALL cells in HPLM+ds, CellTiter-Glo viability, 48 h; series mostly up to 45.8 µM; also: nearly all actives have a fitted effect of over 35% in size; also: potency is read from the fitted curve at half-maximal effect
Inconclusive results are not listed. Activity calls are given as the source filed them. Calls come from the whole dose curve; as a rule, active = well fitted cell-killing curve with a large enough effect; inconclusive = small, poorly fitted or top-dose-only effect, or effect the other way; inactive = no such curve, though single readings can be large or run the other way.
Test Readout: Potency

Molecule	Potency
CCCCOc1ccc(C(=O)Nc2ccc(F)cc2F)cc1	inactive
COC1=C2C[C@@H](C)C[C@H](OC)[C@@H](O)[C@@H](C)C=C(C)[C@H](OC(N)=O)[C@@H](OC)C=CC=C(C)C(=O)NC(=CC1=O)C2=O	8.33 µM (active)
COc1cc(C)c(Sc2cnc(NC(=O)c3ccc(CNC(C)C(C)(C)C)cc3)s2)cc1C(=O)N1CCN(C(C)=O)CC1 (centres undefined)	4.18 µM (active)
Cn1cnc(=N)c2[nH]cnc21	3.32 µM (active)

Lookup: Consider the molecule shown here: COc1cccc(Nc2c(C(N)=O)cnc3c(C)cc(S(=O)(=O)c4cccc(C(=O)N(C)C)c4)cc23)c1 What is its recorded Potency?
Found: inactive

Lookup: Which Potency reading was recorded for the molecule CC1(C)[C@H](O[C@H]2O[C@H](C(=O)O)[C@@H](O)[C@H](O)[C@H]2O[C@@H]2O[C@H](C(=O)O)[C@@H](O)[C@H](O)[C@H]2O)CC[C@@]2(C)[C@H]1CC[C@]1(C)[C@H]2C(=O)C=C2[C@H]3C[C@@](C)(C(=O)O)CC[C@]3(C)CC[C@]21C ?
Found: inactive

Lookup: Which Potency is listed for CC(=O)c1cnc2ccc(-c3cc(Cl)c(O)c(Cl)c3)nc2c1NC1CCC(CN(C)C)CC1 (centres undefined) ?
Found: 0.0741 µM (active)

Lookup: Consider the molecule Cc1cc(OCCCS(C)(=O)=O)cc(C)c1-c1cccc(COc2ccc3c(c2)OC[C@H]3CC(=O)O)c1 and give its measured Potency.
Found: inactive

Lookup: Requested read-out: Potency. Entry: N#Cc1cc(NC(=O)Nc2nnc(-c3ccncc3)s2)ccc1-c1cn[nH]c1
Found: inactive

Lookup: Name the recorded Potency for O=C(CCc1ccc(O)cc1)c1c(O)cc(O)cc1O .
Found: inactive

Lookup: For the molecule shown here, CC[C@H](CC[C@@H](C)[C@H]1CC[C@H]2[C@@H]3CC=C4C[C@@H](O)CC[C@]4(C)[C@@H]3CC[C@]12C)C(C)C , give the reported Potency.
Found: inactive
